Assign pKd to each entry below.
biological target: T1, recombinant human coagulation factor IXa (human, UniProt P00740 134-191; P00740 227-461); test: BLI
T1 construct: range 134-191;range 227-461; Fluorescently labelled with Dylight-647 for the NANEX runs; also called FIXa
T1 sequence (P00740 134-191 limits assumed, form in doubt, chain 1 of 2): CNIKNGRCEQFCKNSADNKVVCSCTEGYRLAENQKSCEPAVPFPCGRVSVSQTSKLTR
T1 sequence (P00740 227-461 limits assumed, form in doubt, chain 2 of 2): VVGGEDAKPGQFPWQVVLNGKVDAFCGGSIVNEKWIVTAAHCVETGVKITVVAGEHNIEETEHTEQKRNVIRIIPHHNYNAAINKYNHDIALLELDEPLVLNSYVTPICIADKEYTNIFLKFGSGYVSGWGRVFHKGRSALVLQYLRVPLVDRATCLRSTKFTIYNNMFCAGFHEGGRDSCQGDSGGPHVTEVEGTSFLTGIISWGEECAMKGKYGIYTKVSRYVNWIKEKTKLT
Numbers only, as −log10 of the molar value.

The cases that follow already have their pKd on record.
CA10502 FIXa-specific Nb (Trapper2; C-term. 6xHis+EPEA) (VHH) VHH: QVQLQESGGGLVQAGGSLRLSCAASGRTSRVYGVGWFRQAPGKERELVASISTSGSVTNVADSVKGRFTISRDNAKTTVYLQMNSLKPEDTALYYCAADPHGRPYGWGQGTQVTVSS :: 7.13
CA10309 FIXa-specific Nb (Stripper2; C-term. 6xHis+EPEA) (VHH) VHH: QVQLVESGGGLVQAGGSLRLSCATSGIGFSIYSMGWYRQAPGKERELVASIAGNEDKDYVESVKGRFTISRDYAKNTLYLEMSGLKFEDTAMYYCAAGLRRGVSLTPYYWGQGTQVTVSS :: 7.68
CA10304 FIXa-specific Nb (C-term. 6xHis+EPEA) (VHH, also called stripper1) VHH: QVQLVESGGGLVQAGGSLKLSCAASERTFSGTVMGWFRQPPGKEREFVGDISWSGSITDYADSVKGRFTISRDNAKNTMYLQMDSLKPEDTAVYYCAARVGGYSYIMSRSPADFGSWGQGTQVTVSS :: 7.34

For the next question, use this binder.
In: For the binder CA11138 FIXa-specific Nb (C-term. 6xHis+EPEA) (VHH, also called trapper1) VHH: QVQLVESGGGLVQAGGSLRLSCAASERTASNYVMGWFRQAPGKEREFVAFISRTGGSTYYADSVKGRFTVSRDGAKNTVYLQMNTMKPEDTAVYYCAASLYIRNYYEGTNYAYWGQGTQVTVSS , give its measured pKd value.
Out: 6.85
